settings: buffer; pH 7.4; 200.0 µM
property_name: solubility kinetic

For the compound shown here, O=C1CN(C(=O)CSc2nncs2)c2ccccc2N1 , give the reported solubility kinetic.
> 46 µg/mL

What does the record list as solubility kinetic for CC(C)Oc1nc(-c2ccc(Cl)cc2)nc2ccccc12 ?
< 0.3 µg/mL

Reported solubility kinetic for COc1ccc(S(=O)(=O)Nc2cccnc2)cc1OC : what is it?
> 44.1 µg/mL

I am curious: what solubility kinetic value has been reported for CCOC(=O)N1CCN(CC(=O)c2ccc(O)cc2O)CC1 ?
> 46.3 µg/mL

What measured solubility kinetic goes with CCN(CC(=O)NCc1cccs1)CC(=O)Nc1ccc(C(N)=O)cc1 ?
> 56.2 µg/mL

Would you kindly share the measured solubility kinetic for COc1ccccc1C(=O)NCCCCNC(=O)c1ccccc1OC ?
> 53.5 µg/mL

Please give the measured solubility kinetic for this compound: O=C(c1ccccc1Oc1ccc([N+](=O)[O-])cc1)N1CCOCC1
> 49.2 µg/mL
